target: MARV Ci67 GP1-649 (Marburg virus, isolate Ci67); experiment: SPR (BIAcore 3000), GP1-649 amine-coupled on CM5, scFv in solution
Exercise: for every item that follows, state its recorded pKd.
Numbers only, as −log10 of the molar value.

Solved cases (3 shown):
>  <binder>
scFv R3H2 (scFv, V domains shown) VH: EVQLLESGGGLVQPGESLRLSCVVSGLSFSNHGVTWVRQAPGKGLDWVSSIDTDGGGTFYGDSVKGRFTISRDDSKNTVSLEMNSLRVEDTAVYYCAARQEYSDYYWGRGVPVTVSS VL: DIELTQSPAILSLSPGERATLLCRASQNVGNRLAWYHQRPGQAPRLLIYGASSRPTGIPDRFSGSGSGTEFTLTISSLEPEDVGVYYCQQDSNWPLTFGGGTRVEIK

>  <meas.value>
6.81

$$$$
>  <binder>
scFv R3C4 (scFv, V domains shown) VH: QVQLEQSGAEVKKPGASVKVSCKASGFTSGSYAISWVRQAPGQGLEWMGVIIPLVGVTNYAEKFQGRVTFTADTSTSTAYMELSSLRSEDTATYFCARDPYCSGNGCYGWYDVWGPGVLVTVSS VL: DIELTQSPSSLSASVGDKVTISCRASQYIKSWLAWYQQKPGKAPKLLIYKASSLQSGVPSRFSGSGSGTDFTLTITNVQPEDFATYYCQQYDSAPFTFGPGTKLDIR

>  <meas.value>
7.48

$$$$
>  <binder>
scFv R4G8 (scFv, V domains shown) VH: EVQLVESGGGLVQPGESLRLSCVVSGLSFSNHGVTWVRQAPGKGLDWVSSIDTDGGGTFYGDSVKGRFTISRDNSKSTVSLEMNSLRVEDTAVYYCAARQEYSDYYWGRGVLVTVSS VL: DIELTQSPAILSLSPGERATLLCRASQNVGNRLAWYHQRPGQAPRLLIYGASSRPTGIPDRFSGSGSGTEFTLTISSLEPEDVGVYYCQQDSNWPLTFGGGTRVEIK

>  <meas.value>
7.17

$$$$

Give pKd for each listed item.
1. scFv R4G11 (scFv, V domains shown) VH: EVQLVQSGGGLVQPGESLRLSCVVSGLSFSNHGVTWVRQAPGKGLDWVSSIDTDGGGTFYGDSVKGRFTISRDDSKNTVSLEMNSLRVEDTAVYYCAARQEYSDYYWGRGVPVTVSS VL: DIELTQSPSTLSVSPGERATLSCRASQSVGSRLAWYHQRPGQAPRLLIYGASSRPTGIPDRFSGSGSGTEFTLTISSLEPEDVGLYYCQQNSKWPLTFGGGTKVEIK
2. scFv R4H12 (scFv, V domains shown) VH: QVQLLESGGGLVQPGESLRLSCVVSGLSFSNHGVTWVRQAPGKGLDWVSSIDTDGGGTFYGDSVKGRFTISRDDSKNTVSLEMNSLRVEDTAVYYCAARQEYSDYYWGRGVPVTVSS VL: EIELTQSPSTLSVSPGERATLSCRASQSVGSRLAWYHQSPGQAPRLLIYGASSRPTGIPDRFSASGSGTEFTLTISSLEPEDVGLYYCQQNSKWPLTFGGGTKVEIK
3. scFv R4B11 (scFv, V domains shown) VH: QVQLEQSGAEVREPGASVKVSCKASGLTSGSYAITWVRQAPGQGLEWMGVIIPLVGVTNYAEKFQGRVTFTADTSTSTAYMELTSLRSDDTATYYCARDPFCSGNGCYGYYDVWGPGVKVTVSS VL: DIELTQSPSSLSASVGDRVTITCRASQDISSWLAWYQQKPGKAPKLLISSASTLQSGVPSRFSGSGSGTDFTLTINSLQSEDFATYYCQQYNSVPLTFGGGTKVEMK

OUTPUT:
1. 8.20
2. 8.41
3. 8.34

INPUT: Please look up its pKd: scFv R4G7 (scFv, V domains shown) VH: EVQLLESGGDLVQPGESLRLSCVVSGISFSNHGMTWVRQAPGKGLDWVSSIDSDGGGTFYADSVKGRFTISRDDSNNTVSLQMNSLRVEDTAVYYCAARHEYSDYYWGRGVPVTVSS VL: DIELTQSPSILSVSPGERATLSCRASQSVGNRLAWYHQRPGQAPRLLIYGASSRPTGIPDRFSASGSGTEFTLTISSLEPEDVGVYYCQQNSKWPLTFGGGTKVEIK
OUTPUT: 8.34
